Tested on: OVCAR-4 ovarian
ASSAY: NCI tumour cell line growth inhibition, 48 h
EXPERIMENTAL_READOUT: TGI

                                    molecule  experimental_readout  data_value
 0        Cn1c(=O)cc(NCc2ccc(Cl)cc2)[nH]c1=O                   TGI    > 100 µM
 1    CC(C)c1ccccc1NC(=O)C(=O)Cc1nc2ccccc2s1                   TGI    > 100 µM
 2  COc1cc(CCCOC(=O)/C=C/c2ccc(O)c(O)c2)cc(O)c1O                   TGI    > 100 µM
 3  O=C1NC(Cc2c[nH]c3ccccc23)C(=O)N2C(C3CCCCC3)c3[nH]c4ccccc4c3C[C@@H]12 (some centres not stated)                   TGI    > 100 µM
 4      Cc1cc2cc3cc(C)c(N(C)C)cc3nc2cc1N(C)C                   TGI     19.5 µM
 5  Cc1cc2c(=O)n(-c3ccc(F)cc3)c(C)nc2c(C(=O)O)c1C                   TGI    > 100 µM
 6  COc1nc(SC)nc2c1cnn2C1OC(C(O)CO)C(OC)C1O (configuration not stated)                   TGI    > 100 µM
 7   CN(C)c1ccc(/C=C(\C#N)C(N)=C(C#N)C#N)cc1                   TGI    > 100 µM
 8  COc1ccc(C(O)/C(=N\NC(N)=S)c2nc3ccc([N+](=O)[O-])cc3[nH]c2=O)cc1OC (configuration not stated)                   TGI    > 100 µM
 9                COc1ccc(N=C(C)c2ccncc2)cc1                   TGI    > 100 µM
10  CCCCC(C)C1CCC2(C)C=CC(=O)C(C)=C2C1O (configuration not stated)                   TGI    > 100 µM
11  CC1=CC(=O)CCC2(C)C1CC[C@@H]2OC=O (some centres not stated)                   TGI    > 100 µM
12  COc1ccc(C2C3C(=O)C=CC(=O)C3[C@@H]2C)cc1OC (some centres not stated)                   TGI    > 100 µM
13         CCCCCCOc1ccc(C(=O)NOCc2ccccc2)cc1                   TGI    > 100 µM
14  Cc1ccc(-c2c(C#N)c(S)n(NS(=O)(=O)c3ccc(C)cc3)c(=O)c2C#N)cc1                   TGI     36.4 µM
15    COc1cccc(NC(=S)Nn2c(C)nc3ccccc3c2=O)c1                   TGI    > 100 µM
16  CC(C)C1(C)N=C(C(F)(F)F)c2cc(C(=O)C(F)(F)F)c3ccccc3c2N1 (configuration not stated)                   TGI     18.9 µM
17    ClC1=C(Cl)C(Cl)=C(Cl)C1=C/C=C/c1ccccc1                   TGI     19.8 µM
18  CC(C)(C)N(Cc1ccc2c(c1)OCO2)C(=O)/C=C\S(=O)c1ccccc1 (configuration not stated)                   TGI     10.7 µM
19  O=c1oc2ccccc2c(O)c1C(c1ccco1)c1c(O)c2ccccc2oc1=O                   TGI    > 100 µM
20  COc1ccc(C2=NNC(=O)OC2c2ccccc2)cc1 (configuration not stated)                   TGI    > 100 µM
21  COc1ccc(/C(=N/NC(=O)NN)C(c2ccc(OC)cc2)C2(O)CNc3c(Cl)cc(Cl)cc32)cc1 (configuration not stated)                   TGI    > 100 µM
22  CCCN(CCCC(NC(C)=O)C(=O)NCc1ccccc1)C(=O)NC (configuration not stated)                   TGI    > 100 µM
23         CCOC(=O)c1csc(NC(=O)CCN2CCCCC2)n1                   TGI    > 100 µM
24  CCNCC(=O)O[C@]1(CC)C(=O)OCc2c1cc1n(c2=O)Cc2cc3ccccc3nc2-1                   TGI     8.84 µM
25  Cc1ccc(NC(=O)NC(=O)c2ccc([N+](=O)[O-])cc2[N+](=O)[O-])cc1Oc1ncc(Cl)cn1                   TGI       26 µM
26  CC(C)CCOc1ccc(-c2n[nH]c(C(F)(F)F)c2-c2cncc(C#N)c2)c(O)c1                   TGI    > 100 µM
27  N#Cc1c(-c2ccco2)cc(-c2ccc(NCc3nc4ccccc4[nH]3)cc2)nc1N                   TGI     66.3 µM
28  N#Cc1c(-c2ccc([N+](=O)[O-])cc2)cc(-c2ccc(Nc3ccnc4cc(C(F)(F)F)ccc34)cc2)nc1N                   TGI     28.1 µM
29                     O=C1OCC(c2cccs2)=C1Cl                   TGI    > 100 µM
30  Cc1[nH]c(=O)nc(N/N=C/c2ccc(Cl)cc2)c1C(=O)NC(C)(CO)CO                   TGI    > 100 µM
31  Brc1ccc(-c2nnc(-c3nn(-c4ccccc4)c4nc5ccccc5nc34)o2)cc1                   TGI    > 100 µM
32  CCCc1c(OC)c(=O)c2c(OC)cc(OC)c3c4c(OC)cc(OC)c5c(=O)c(OC)c(CCC)c(c1c23)c54                   TGI     28.4 µM
33          O=C1CN2Cc3cc(N4CCOCC4)ccc3N=C2N1                   TGI    > 100 µM
34       CC(C)(C)c1nc2c(o1)C(=O)c1ccccc1C2=O                   TGI     2.44 µM
35  CC(C)(C)c1ccc(-c2nc3ccc([N+](=O)[O-])cc3c(=O)o2)cc1                   TGI     75.2 µM
36  COC1(OC)CC2C=C(S(=O)(=O)c3ccccc3)C1N(Cc1ccccc1)C2=O (configuration not stated)                   TGI    > 100 µM
37  O=[N+]([O-])c1ccc(C2=NOC(c3ccccc3F)N2C23CC4CC(CC(C4)C2)C3)cc1 (configuration not stated)                   TGI    > 100 µM
38  CC1C[C@H](OC(N)=O)C(C)CC1=O (some centres not stated)                   TGI    > 100 µM
39  COc1ccc(/C=C2\C[C@H]3[C@@H]4CCC5=C[C@@H](N6CCCC6)CC[C@]5(C)[C@H]4CC[C@]3(C)[C@H]2O)cc1                   TGI     13.9 µM
40  CC1(c2nc3cc(Cl)c(Cl)cc3[nH]2)CCC(CO)C(C)(C)O1 (configuration not stated)                   TGI    > 100 µM
41  CCOC(=O)c1sc2nc3sc(N=Nc4ccc(Cl)cc4)c(O)n3c(=S)c2c1C                   TGI    > 100 µM

Measured values drawn from PubChem BioAssay (NCI) for this set.
